# System: SF-539
# experimental-details: NCI tumour cell line growth inhibition, 48 h
Calls of active or inactive are those of the source. Rule as the data show it: active = GI50 up to about 1.1 µM and inactive = higher.
Each entry below carries its recorded GI50.

These recorded examples may help you get a feel for the data.
O=C(O)C1CCCN(CCc2c[nH]c3ccccc23)C1 (centres undefined) : > 100 µM (inactive)
CCOC(=O)NC(=O)c1cn(C2OC(COC(=O)CCCCCCCCC(=O)OCC3OC(n4cc(C(=O)NC(=O)OCC)c(=O)[nH]c4=O)C4OC(C)(C)OC34)C3OC(C)(C)OC32)c(=O)[nH]c1=O (centres undefined) : > 100 µM (inactive)

Attention now shifts to the item below.
Give GI50 (SF-539) of the following compound: CCOc1ccc(NC2=NC(=O)C(CC(=O)Nc3ccccc3[N+](=O)[O-])S2)cc1 (centres undefined) > 100 µM (inactive)

###

Each entry below carries its recorded GI50.
# Test system: OVCAR-5
# experimental-details: NCI tumour cell line growth inhibition, 48 h
The source made the active and inactive calls. Rule as the data show it: active = GI50 up to about 1.1 µM and inactive = higher.

N#CC(c1ccccc1)N(CCCCCCN(C(=O)c1ccccc1)C(C#N)c1ccccc1)C(=O)c1ccccc1 (stereo not given) : > 100 µM (inactive)
O=C1CN(c2ccc(Cl)cc2)C(=O)CN1CCN1CC(=O)N(c2ccc(Cl)cc2)CC1=O : > 100 µM (inactive)
COc1ccc(-c2nnc(-c3nsc4ccccc34)o2)cc1 : > 100 µM (inactive)
OCC(O)COCn1nncc1Cn1ncc2c(SCc3ccccc3)ncnc21 (stereo not given) : > 100 µM (inactive)
CC(=O)[C@]12OC(=O)C3=C1[C@H](CC[C@@H]3C)[C@@H](C)C[C@H]2C=C(C)C : 8.11 µM (inactive)
CCOC(=O)NN(C(=O)OCC)C(C(=O)c1ccc(Cl)cc1)=C1NCCN1 : > 100 µM (inactive)

So what does the record say about GI50 for CCOC(=O)C(CC(C)C)NC(=O)CSc1nnc(COc2ccc(Cl)cc2)n1-c1ccccc1 (stereo not given) ? 19.9 µM (inactive)

So what does the record say about GI50 for COc1ccc(C(SC2C(O)C(CO)OC2n2ccc(N)nc2=O)(c2ccccc2)c2ccc(OC)cc2)cc1 (stereo not given) ? 20.1 µM (inactive)

So what does the record say about GI50 for `CCC(=O)Nc1ccc(N2C(=O)/C(=C/c3ccc(O)c(OC)c3)N=C2c2ccccc2)cc1` ? 40.8 µM (inactive)

So what does the record say about GI50 for `NC(=S)N/C=C1\C(=O)Oc2ccccc2C1=O` ? > 100 µM (inactive)

###

# Tested on: SR
# experimental-details: NCI tumour cell line growth inhibition, 48 h
Calls of active or inactive are those of the source. Cut-off read from the data, not from the text of the source: active = GI50 up to about 1.1 µM and inactive = higher.
Bench note: report the call from yes (active), no (inactive)

C(#Cc1ccccc1)SC1=C(c2ccccc2)S/C(=C(\SC#Cc2ccccc2)c2ccccc2)S1 : no

Now for a further molecule.
In this assay, the call recorded for `C[C@@H](Cl)[C@H]1CCCN(Cc2ccc(Br)cc2)C1` was what? no

###

# System: KM12
# experimental-details: NCI tumour cell line growth inhibition, 48 h
Active and inactive are the calls of the source. Rule as the data show it: active = GI50 up to about 1.1 µM and inactive = higher.
Each entry below carries its recorded GI50.

These recorded examples may help you get a feel for the data.
ClC1(Cl)C(c2ccccc2)C1c1ccccc1 (stereo not given) : 21.4 µM (inactive)
CC(C)c1ccc2c(c1)CCC1C(C)(CN)CCCC21C (stereo not given) : 1.69 µM (inactive)
Cc1cc2c(cc1Cl)SC(c1ccccc1O)NS2(=O)=O (stereo not given) : 94 µM (inactive)
CCOC(=O)[C@H](CCCNC(=O)OC(C)(C)C)NCc1ccc(OC)c(OC)c1 : > 100 µM (inactive)
CC1CNC(c2ccc(-c3nc(-c4ccc(C5=NC(C)CN5)cc4)nc(N(C)C)n3)cc2)=N1 (stereo not given) : 2.23 µM (inactive)

Attention now shifts to the item below.
So what does the record say about GI50 for `Clc1ccc(/N=C/C=C/Nc2ccc(Cl)cn2)nc1` ? 8.53 µM (inactive)

###

# Tested on: SN12C
# experimental-details: NCI tumour cell line growth inhibition, 48 h
Calls of active or inactive are those of the source. Rule as the data show it: active = GI50 up to about 1.1 µM and inactive = higher.
Each entry below carries its recorded GI50.

CCOC(=O)NC(=O)c1cn(C2OC(COC(=O)CCCCCCCCC(=O)OCC3OC(n4cc(C(=O)NC(=O)OCC)c(=O)[nH]c4=O)C4OC(C)(C)OC34)C3OC(C)(C)OC32)c(=O)[nH]c1=O (stereo not given) : 83.8 µM (inactive)

So what does the record say about GI50 for `C1CCCCC2(CCCCCCCCC3(CCC1)SCCS3)SCCS2` ? > 100 µM (inactive)

So what does the record say about GI50 for `NCCCCN(CCCN)Cc1ccccc1` ? > 100 µM (inactive)

So what does the record say about GI50 for `C=CCn1c(N)c(C#N)c(C#N)c1CCC` ? > 100 µM (inactive)

###

Each entry below carries its recorded GI50.
# Test system: SN12C
# experimental-details: NCI tumour cell line growth inhibition, 48 h
Activity calls are given as the source filed them. Cut-off read from the data, not from the text of the source: active = GI50 up to about 1.1 µM and inactive = higher.

These recorded examples may help you get a feel for the data.
CC1=CC(=O)/C(=C/Nc2nc(-c3cccc([N+](=O)[O-])c3)cs2)C(=O)O1 : 66.5 µM (inactive)
CN(C(=O)c1ccc2c(c1)sc1c(=O)n(C)c3ccccc3c12)c1ccccc1 : > 100 µM (inactive)
Nc1nc(-c2ccccc2)nc2c1[n+]([O-])c1ccccc1[n+]2[O-] : > 100 µM (inactive)
CCOC(=O)C(CC(C)C)NC(=O)CSc1nnc(COc2ccc(Cl)cc2)n1-c1ccccc1 (centres undefined) : 15.6 µM (inactive)
Cc1ccc(NC(=S)SCCC(=O)O)cc1 : > 100 µM (inactive)

So what does the record say about GI50 for COc1ccc(-c2c(C#N)c(=O)nc(SC)n2C2OCC(OC(C)=O)C(OC(C)=O)C2OC(C)=O)cc1 (centres undefined) ? > 100 µM (inactive)

###

# Tested on: MCF7
# experimental-details: NCI tumour cell line growth inhibition, 48 h
Activity calls are given as the source filed them. Cut-off read from the data, not from the text of the source: active = GI50 up to about 1.1 µM and inactive = higher.
Bench note: report the call from active, inactive

O=C1CN(c2ccc(Cl)cc2)C(=O)CN1CCN1CC(=O)N(c2ccc(Cl)cc2)CC1=O : inactive

In this assay, the call recorded for `O=C(NCCCl)N(O)C(=O)Nc1ccccc1` was what? inactive

In this assay, the call recorded for `C(/C=N/c1ccccc1)=C(/Nc1ccccc1)C12CC3CC(CC(C3)C1)C2` was what? inactive

###

# System: U-251
# experimental-details: NCI tumour cell line growth inhibition, 48 h
Active and inactive are the calls of the source. Cut-off read from the data, not from the text of the source: active = GI50 up to about 1.1 µM and inactive = higher.
Bench note: report the call from active, inactive

In this assay, the call recorded for `N#Cc1c2ccc([N+](=O)[O-])cc2c(=O)n2c1[nH]c1ccc(C(F)(F)F)cc12` was what? inactive

In this assay, the call recorded for `N#CC(C#N)=C(N)/C(C#N)=C/c1ccc2[nH]ccc2c1` was what? inactive

In this assay, the call recorded for `C(/C=N/c1ccccc1)=C(/Nc1ccccc1)C12CC3CC(CC(C3)C1)C2` was what? inactive

In this assay, the call recorded for `Cc1cccc2c1NC(=O)/C2=N\Nc1ccccc1[N+](=O)[O-]` was what? inactive

In this assay, the call recorded for `COc1ccc(-c2nnc(-c3nsc4ccccc34)o2)cc1` was what? inactive

In this assay, the call recorded for CCOc1ccc(NC(=O)CC2SC(Nc3ccc(C)cc3C)=NC2=O)cc1 (configuration not stated) was what? inactive

In this assay, the call recorded for `O=[N+]([O-])c1ccc(/C=N/C2CCCCC2)cc1` was what? inactive

###

# System: DU-145
# experimental-details: NCI tumour cell line growth inhibition, 48 h
Calls of active or inactive are those of the source. No stated cut-off is given here; in the data, active = GI50 up to about 1.1 µM and inactive = higher.
Each entry below carries its recorded GI50.

These recorded examples may help you get a feel for the data.
COc1cccc(C2c3cc4c(cc3OC(N3CCCC3)C2C)OCO4)c1OC (centres undefined) : 2.01 µM (inactive)
Cc1nc(C)c(N2CCN(Cc3ccccc3)CC2)c(O)n1 : > 100 µM (inactive)
O=[N+]([O-])c1cc(C2(N3CCCCC3)CCCCC2)sc1Br : 3.18 µM (inactive)

Attention now shifts to the item below.
So what does the record say about GI50 for `CCC(C)(C)/C(CC(O)(C(F)(F)F)C(F)(F)F)=N\O` ? > 100 µM (inactive)

###

# System: NCI-H522
# experimental-details: NCI tumour cell line growth inhibition, 48 h
The source made the active and inactive calls. Rule as the data show it: active = GI50 up to about 1.1 µM and inactive = higher.
Bench note: report the call from y (active), n (inactive)

Record excerpt, results attached:
C(/C=N/c1ccccc1)=C(/Nc1ccccc1)C12CC3CC(CC(C3)C1)C2 : n
COc1ccc2c(c1)CC1C3(CCCCC23)CC[N+]1(C)C (stereo not given) : n
CO[C@@]12CC(=O)/C(=C(O)\C=C\c3ccccc3)C(=O)[C@]1(OC)Cc1ccccc1O2 : n
O=Cc1ccc(CCl)cc1 : n
C=C1C(=O)C2=C[C@H]1C[C@H](O)C(=O)[C@]1(C)CCCC(C)(C)[C@H]1C[C@H]2O : y
O=CN1CCN(C(=O)c2ccc(Cl)cc2)C1=S : n

In this assay, the call recorded for OCc1ccc(C2CC(c3ccco3)=NN2c2ccccc2)o1 (stereo not given) was what? n

In this assay, the call recorded for `CSc1ccc(NC(=O)Nc2cc(C)ccn2)cc1` was what? n

In this assay, the call recorded for COc1cc(C(C)c2cc3c(cc2OCCCCCOc2cc4c(cc2C(C)c2cc(OC)c(OC)c(OC)c2)OCO4)OCO3)cc(OC)c1OC (stereo not given) was what? n

In this assay, the call recorded for `C=CCn1c(=O)c(C)cn(/C(=C/C(=O)OCC)C(=O)OCC)c1=O` was what? n
